subject.of.test: NSD2 [1-1365] (Homo sapiens (Human))
assay.procedure: LC-MS/MS-based NSD2 enzymatic assay (SAH production)
Type: biochemical
test.settings: read-out: NSD2 IC50
Readings of IC50 for the listed compounds
assay.endpoint: IC50

compound: C[C@H]1COC[C@@H]([C@@]2(N)CCCN(c3cnc(-c4ccc(F)c(F)c4)cc3Cn3cnc4c(N)ncnc43)C2)O1
assay.endpoint: IC50
result: 10 to 1000 nM
--
compound: NC(=O)[C@@H]1[C@H](N)CCCN1c1cnc(-c2ccc(F)c(F)c2)cc1Cn1cnc2c(N)ncnc21
assay.endpoint: IC50
result: > 1000 nM
--
compound: CCc1cccc([C@@]2(N)CCCN(c3cnc(C4CC4)cc3Cn3cnc4c(N)nccc43)C2)n1
assay.endpoint: IC50
result: 10 to 1000 nM
--
compound: CNC(=O)[C@@H]1[C@H](N)CCCN1c1cnc(-c2ccc(F)c(F)c2)cc1Cn1cnc2c(N)ncnc21
assay.endpoint: IC50
result: > 1000 nM
--
compound: Nc1ncnc2c1ncn2Cc1cc(-c2ccc(F)c(F)c2)ncc1N1CCC[C@](N)(c2ccc[nH]c2=O)C1
assay.endpoint: IC50
result: 1 to 10 nM
--
compound: Nc1ncnc2c1ncn2Cc1cc(-c2ccc(F)cc2)ncc1N1CCC[C@](N)(c2ccn(C(F)F)n2)C1
assay.endpoint: IC50
result: 1 to 10 nM
--
compound: Nc1ncnc2c1ncn2Cc1cc(-c2ccc(F)cc2)ncc1N1CCCC(N)(c2ccc(F)c(CF)n2)C1 (centres unmarked)
assay.endpoint: IC50
result: 10 to 1000 nM
--
compound: Nc1ncnc2c1ncn2Cc1cc(-c2cnc(F)c(F)c2)ncc1N1CCCC(N)(c2cccc(Cl)n2)C1 (centres unmarked)
assay.endpoint: IC50
result: 10 to 1000 nM

###

subject.of.test: NSD2 [1-1365] (Homo sapiens (Human), UniProt O96028)
Sequence (O96028 whole entry): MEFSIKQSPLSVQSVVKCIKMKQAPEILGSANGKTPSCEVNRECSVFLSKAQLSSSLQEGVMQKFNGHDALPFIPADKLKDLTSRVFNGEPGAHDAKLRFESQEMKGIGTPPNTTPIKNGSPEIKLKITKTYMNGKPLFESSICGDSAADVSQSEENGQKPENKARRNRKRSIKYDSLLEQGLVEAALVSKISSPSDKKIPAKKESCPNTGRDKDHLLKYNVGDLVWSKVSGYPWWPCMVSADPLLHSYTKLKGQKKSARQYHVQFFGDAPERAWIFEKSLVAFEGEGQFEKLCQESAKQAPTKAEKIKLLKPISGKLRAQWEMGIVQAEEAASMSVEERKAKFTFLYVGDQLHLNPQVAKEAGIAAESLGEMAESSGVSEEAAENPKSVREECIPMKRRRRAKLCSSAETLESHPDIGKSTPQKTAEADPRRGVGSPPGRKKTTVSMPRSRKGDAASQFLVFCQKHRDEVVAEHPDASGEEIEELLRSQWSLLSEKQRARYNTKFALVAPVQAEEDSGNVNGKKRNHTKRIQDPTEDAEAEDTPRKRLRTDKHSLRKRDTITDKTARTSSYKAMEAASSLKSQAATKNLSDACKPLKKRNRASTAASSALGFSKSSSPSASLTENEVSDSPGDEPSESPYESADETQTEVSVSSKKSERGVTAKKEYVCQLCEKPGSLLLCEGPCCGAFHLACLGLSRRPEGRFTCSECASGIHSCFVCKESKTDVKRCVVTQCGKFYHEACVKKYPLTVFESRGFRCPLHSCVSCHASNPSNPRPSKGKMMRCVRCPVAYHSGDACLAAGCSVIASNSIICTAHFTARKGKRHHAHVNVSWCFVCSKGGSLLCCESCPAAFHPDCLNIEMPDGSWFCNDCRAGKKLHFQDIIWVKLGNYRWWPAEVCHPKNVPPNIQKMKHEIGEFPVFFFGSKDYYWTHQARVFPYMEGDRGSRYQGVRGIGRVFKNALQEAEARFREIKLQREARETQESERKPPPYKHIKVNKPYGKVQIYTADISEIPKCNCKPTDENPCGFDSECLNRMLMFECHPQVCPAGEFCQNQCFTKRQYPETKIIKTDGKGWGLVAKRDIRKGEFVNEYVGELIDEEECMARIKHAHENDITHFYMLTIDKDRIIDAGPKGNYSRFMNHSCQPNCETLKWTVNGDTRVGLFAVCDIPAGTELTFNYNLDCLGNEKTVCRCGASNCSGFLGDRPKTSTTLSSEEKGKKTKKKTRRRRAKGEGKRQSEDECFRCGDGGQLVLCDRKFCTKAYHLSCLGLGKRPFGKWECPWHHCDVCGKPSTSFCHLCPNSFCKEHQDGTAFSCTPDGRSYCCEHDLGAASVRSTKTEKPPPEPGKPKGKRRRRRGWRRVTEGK
assay.procedure: LC-MS/MS-based NSD2 enzymatic assay (SAH production)
Format: biochemical
test.settings: read-out: NSD2 IC50
assay.endpoint: IC50

compound: Nc1ncnc2c1ncn2Cc1cc(-c2ccc(F)c(F)c2)ncc1N1CCC[C@](N)(c2ccncc2F)C1
assay.endpoint: IC50
result: 10 to 1000 nM
//
compound: COc1ccc(-c2cc(Cn3cnc4c(N)ncnc43)c(N3CCC[C@](N)(c4ccc(F)c(C)n4)C3)cn2)cc1
assay.endpoint: IC50
result: 10 to 1000 nM
//
compound: CC(O)c1ccc([C@@]2(N)CCCN(c3cnc(-c4ccc(F)c(F)c4)cc3Cn3cnc4c(N)ncnc43)C2)nc1Cl (some centres unmarked)
assay.endpoint: IC50
result: 10 to 1000 nM
//
compound: Cn1cc([C@@]2(N)CCCN(c3cnc(-c4ccc(F)c(F)c4)cc3Cn3cnc4c(N)ncnc43)C2)cn1
assay.endpoint: IC50
result: 1 to 10 nM
//
compound: Nc1ncnc2c1ncn2Cc1cc(-c2cnc(O)c(F)c2)ncc1N1CCCC(N)(c2cccc(Cl)n2)C1 (centres unmarked)
assay.endpoint: IC50
result: 10 to 1000 nM
//
compound: COc1ccc(-c2cc(Cn3cnc4c(N)ncnc43)c(N3CCC[C@](N)(c4ccc(F)c(Cl)n4)C3)cn2)cc1
assay.endpoint: IC50
result: 10 to 1000 nM
//
compound: C[C@H]1CC[C@@H](N)CN1c1cnc(-c2ccc(F)c(F)c2)cc1Cn1cnc2c(N)ncnc21
assay.endpoint: IC50
result: > 1000 nM
//
compound: Nc1ncnc2c1ncn2Cc1cc(-c2ccc(F)c(F)c2)ncc1N1CCC[C@@H](N)[C@H]1COCC(F)F
assay.endpoint: IC50
result: 10 to 1000 nM
